Value source: patent US20260224758A1

target: triton-extracted alpha-synuclein from PD Tissue (Homo sapiens, UniProt P37840); construct: tissue Analytic Biological Services Inc; host or cells: human PD temporal cortex grey matter, Triton X-100 insoluble pellet; test: Alpha-synuclein tissue homogenate binding assay (Assay 1), displacement of [^3H]-1000; details: Aβ Tissue Ki / α-synuclein Tissue Ki
test_readout: Selectivity ratio (Assay 2/Assay 1)

| molecule | Selectivity ratio (Assay 2/Assay 1) |
| --- | --- |
| COC[C@H]1CN(c2ncc(C#Cc3ccc(-n4ccnc4)nc3)cn2)CCN1c1ncccn1 [Example 11] | 10909 |

Entry FCCOC[C@H]1CN(c2ncc(/C=C/c3ccc(-c4cnco4)nc3)cn2)CCN1c1ncncn1 [Example 41] — recorded Selectivity ratio (Assay 2/Assay 1) = 1500

Record summary for FCCOC[C@H]1CN(c2ncc(/C=C/c3ccc(-n4ccnc4)nc3)cn2)CCN1c1ncccn1 [Example 3] : reported Selectivity ratio (Assay 2/Assay 1) = 8000

// Selectivity ratio (Assay 2/Assay 1) value for CNCC1CN(c2cc(F)ncn2)CCN1c1ncc(C#Cc2ccc(-c3cnco3)nc2)cn1 (centres unmarked) [Example 65] : 1093

The molecule listed as COCCOC[C@H]1CN(c2ccccn2)CCN1c1ncc(/C=C/c2ccc(-n3ccnc3)nc2)cn1 [Example 6] shows Selectivity ratio (Assay 2/Assay 1) equal to 100

Short answer for OC[C@H]1CN(c2ccncn2)CCN1c1ncc(/C=C/c2ccc(-n3ccnc3)nc2)cn1 [Example 24] : Selectivity ratio (Assay 2/Assay 1) was 240

Lab note: measured Selectivity ratio (Assay 2/Assay 1) of COC[C@H]1CN(c2ncc(/C=C/c3ccc(-n4ccnc4)nc3)cn2)CCN1c1ccccn1 [Example 22] was 1857

Form: molecule = Cn1cc(-c2ncc(C#Cc3cnc(N4CCN(c5ncncn5)[C@@H](COCCF)C4)nc3)cn2)cn1 [Example 44] ; Selectivity ratio (Assay 2/Assay 1) = 2105
